System: Plasmodium falciparum Sir2 (PF13_0152, Sir2A)
Test Method Notes: Plasmodium falciparum Sir2A binding compounds – biochemical, small-molecule microarray, 635 nm fluorescence, primary screen (AID 1098);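 also: score merges spot fluorescence intensity with its signal-to-noise ratio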
Test Conditions: fluorescence 635 nm, higher = more signal
Measurement Kind: composite z-score
Answers are plain numbers.

Here's what some known entries look like.
C=CC[C@]1(C(=O)N2CCOCC2)N=C(c2ccc(OCCCO)cc2)O[C@H]1c1ccccc1N=[N+]=[N-] ... 0.945
NC(=O)[C@@H]1[C@H]2C(=O)O[C@H](c3ccccc3)[C@H](c3ccccc3)N2[C@H](c2ccc(O)cc2)[C@@]12C(=O)Nc1ccc(C#CC3=CCCCC3)cc12 ... 0.735
COCCOC(=O)N1C(=O)[C@@]2(c3cc(C#CC4(O)CCCCCC4)ccc31)[C@H](c1ccccc1OCCO)N1[C@H](c3ccccc3)[C@H](c3ccccc3)OC(=O)[C@H]1[C@@H]2C(=O)N1CCc2cc(OC)c(OC)cc2C1 ... 1.09
COc1ccc([C@H]2C[C@H]3C(Br)=C[C@@]2(CO)C(=O)[C@]32CO2)cc1 ... -0.194
COC(=O)c1c(CC[C@@H](CO)NC(=O)NCCc2c[nH]c3ccccc23)oc(C(=O)Cc2ccccc2)c1C(=O)OC ... 0.176
COc1ccc(C(=O)Nc2cccc(CN3C(=O)[C@]4(O[C@H](CCn5cc(CCO)nn5)[C@@H]([Si](C)(C)c5ccc(OC)cc5)[C@@H]4C)c4ccccc43)c2)cc1 ... 0.83
O=C1C2C=CC(C(O)c3c(F)cccc3Cl)N(Nc3ccccc3F)C2C(=O)N1c1ccccc1 (stereo not given) ... 0.537
CC1CC/C=C\[C@H]2OC34C=CCN(Cc5ccccc5)C(=O)[C@H]3N(C(C)CO)C(=O)[C@@H]4C2C(=O)O1 (stereo not given in full) ... -0.588

Report composite z-score for each item below.
1. COc1ccccc1CN1C(=O)c2ccccc2[C@@]2(Cc3ccccc3N(CCCN(C)C)C2=O)[C@@H]1c1ccc(CO)cc1
2. O=C(O)[C@H]1C[C@H]2C(=O)N3CCC[C@H]3C(=O)N2[C@H]1c1ccc(O)cc1
3. CO[C@H]1O[C@H](CO)[C@@H](OC(=O)Nc2cccc(F)c2)[C@H](OC(=O)Nc2ccccc2)[C@H]1OC(=O)Nc1ccccc1
4. COc1ccc(CCNC(=O)[C@@]2(c3ccc([N+](=O)[O-])cc3)CC(=O)N(CC34CC5CC(CC(C5)C3)C4)[C@@H]2c2ccc(CO)cc2I)cc1

Response line:
1: 0.269; 2: 0.383; 3: 1.46; 4: 1.01

Recorded values, source PubChem BioAssay.
